experiment: NCI Yeast Anticancer Drug Screen. Data for the cln2 rad14 strain (AID 165);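 note: 0% = growth equal to vehicle treated cultures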; details: S. cerevisiae cln2 rad14 strain, at 5.0 µM (retest, dose inferred, filed as 0.5)
Compounds without any hit were thinned out: in the full panel of roughly 79,000, 15% have a hit. The source made the active and inactive calls. Cut-off read from the data, not from the text of the source: active = growth inhibition above about 70%; inactive = the rest.
Valid outcomes are listed here; reply with one: 1 (active), 0 (inactive)

Some solved cases for reference:
{"COMPOUND": "CN(C)CCC(/C=C/c1ccccc1)=N\\Nc1ccc(Cl)c(Cl)c1", "LABEL VALUE": 1}
{"COMPOUND": "COc1ccc(OC)c(N=Nc2c(C)[nH]n(C(N)=S)c2=O)c1", "LABEL VALUE": 0}
{"COMPOUND": "CN(C)CCOc1ccc2c(c1)C(=O)/C(=C\\c1ncc([N+](=O)[O-])n1C)C2", "LABEL VALUE": 0}
{"COMPOUND": "C[N+](C)([O-])CCOc1cc2c(c3ccccc13)-c1ccccc1C2=O", "LABEL VALUE": 0}
{"COMPOUND": "C/C(=N\\NC(=S)N1CCN(c2ccccn2)CC1)c1ncccn1", "LABEL VALUE": 0}
{"COMPOUND": "O=C(Nc1c(Cl)cccc1Cl)Oc1cccc2cccnc12", "LABEL VALUE": 0}

Lab note: next compound to report on.
Q. Kindly provide the recorded test outcome for the following compound: NC(=S)N/N=C/c1ccc(Cl)s1
A. 0

---

Provide the reported growth inhibition of each item.
test: NCI Yeast Anticancer Drug Screen. Data for the cln2 rad14 strain (AID 165);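 note: 0% = growth equal to vehicle treated cultures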; details: S. cerevisiae cln2 rad14 strain, at 50.0 µM (retest, dose inferred, filed as 5.0), stronger effect = higher value
This is part of a sample that, as a whole, favours compounds with a hit. Of some 79,000 tested, about 15% had one in any assay.
Numbers only, in %.

Here are 5 compounds together with their reported answers.
{"COMPOUND": "COc1cc2oc(-c3ccc(O)cc3O)c(CC=C(C)C)c(=O)c2c(O)c1/C=C/C(C)C", "growth inhibition (%)": 98}
{"COMPOUND": "Cc1ccc(N=c2cc(-c3ccccc3)oc3ccccc23)c(C)c1", "growth inhibition (%)": 51}
{"COMPOUND": "CC(=O)c1csc2c1C(=O)c1scc(C(C)=O)c1C2=O", "growth inhibition (%)": 36}
{"COMPOUND": "N#C/C=C(\\c1ccccc1)c1c[nH]c2ccccc12", "growth inhibition (%)": 98}
{"COMPOUND": "CSc1ccc2c(c1)S[S@@](=O)N2", "growth inhibition (%)": 33}

I'm hoping you can list growth inhibition for every compound here, please.
1. O=c1cc(CI)oc2ccccc12
2. O=C(Cn1cnc2ccc([N+](=O)[O-])cc21)N1CCN(c2ccccc2)CC1
3. O=Cc1ccc(O)c2ccccc12
4. CC1OC2CC(=O)OC2C2=C1C(=O)c1c(O)cccc1C2=O (stereo not drawn)
5. O=C(C(=O)c1ccncc1)c1ccccc1
6. CSc1ncccc1C(=O)[O][Sn]([c]1ccccc1)([c]1ccccc1)[c]1ccccc1

A.
1: 100; 2: -5; 3: 23; 4: 99; 5: -59; 6: 99

For each of the items listed, what is its growth inhibition?
1. CC(C)(C)c1cc(C(O)(C(F)(F)F)C(F)(F)F)c(S)c(C(O)(C(F)(F)F)C(F)(F)F)c1
2. CN(C)c1ccc(C(O)(Cc2cccc(C#N)c2)c2ccc(N(C)C)cc2)cc1
3. CC(=O)c1ccc(OCc2ccccc2)cc1

A.
1. 98
2. -16
3. 2

List reported growth inhibition for each of these compounds:
1. O=C(/C=C/C(=O)c1ccc(O)cc1)c1ccccc1
2. CC1C=C(COC(=O)Nc2ccccc2)ON1c1ccccc1 (stereo not drawn)
3. CC(=O)Oc1c(Cl)cc(Cl)cc1C(c1cc(Cl)cc(Cl)c1OC(C)=O)C(Cl)(Cl)Cl
4. O=C1C=CC(=Nc2cc3c(cc2Br)-c2ccccc2C3Br)O1 (stereo not drawn)
5. CN(C)CC1CCC/C(=C\c2ccc(Cl)cc2)C1=O (stereo not drawn)
6. O=C(O)[C@@H]1CCCC[C@@H]1C(=O)N(C1CCCCC1)C1CCCCC1
7. CC#CS(=O)(=O)c1ccccc1
8. CCCCCCCCCCCCCCSC(=NC)NC

A.
1. 90
2. 95
3. 2
4. 99
5. 99
6. 96
7. 23
8. 99

For each of the compounds below, note its growth inhibition.
1. CN(C)CC(C)(C)/C(=N\Nc1ccccc1)c1ccccc1
2. COc1ccc2nc3cc(Cl)ccc3c(Nc3ccc(O)c(CNCCO)c3)c2c1
3. COc1ccc(C2CC(CO)ON2c2ccccc2)cc1 (stereo not drawn)
4. O=S(=O)(O)SCCNCCCCCC1CCCCC1

A.
62
-11
-18
71

For the 7 compounds below, give their growth inhibition values.
1. C=Cc1ccc(B2NCCO2)cc1
2. CC(C)c1ccc(/C=C2\CSCC3=C2NC(=S)NC3c2ccc(C(C)C)cc2)cc1 (stereo not drawn)
3. S=C(N/N=C/c1ccccn1)Nc1ccccn1
4. NNCc1cc(Cl)c2cccnc2c1O
5. CC(C)C1(c2ccccc2)C(=O)c2ccccc2C1=O
6. O=C(NNc1nc(-c2ccccc2)cs1)Nc1ccccc1
7. O=NN(CCCl)C(=O)Oc1cc(Cl)c(Cl)cc1Cl

A.
[74, 83, 98, 98, 10, 97, 99]

Please give growth inhibition, item by item, for the list that follows.
1. Cc1ccc(S(=O)(=O)NC(=O)CC2CCCCC2)cc1
2. C1=C(c2ccccc2)C(c2ccc(OCCN3CCCCC3)cc2)Oc2ccccc21 (stereo not drawn)
3. O=C1NC(=O)N(c2ccc(Cl)c(Cl)c2)C1=O
4. CC(C)(CN1CCCCC1)C(=O)CC(SCCS(=O)(=O)O)c1ccc(Cl)cc1 (stereo not drawn)
5. CCC(CC)COC(=O)C(C)=O

A.
1. 91
2. 99
3. 5
4. 91
5. -4

Provide reported growth inhibition for each item, in the same order as listed.
1. O=C1C=CC(=O)c2c(O)c(N3CCN(CCO)CC3)c(Cl)c(O)c21
2. CCc1nc(N)nc(N)c1-c1ccc(NCCN)c([N+](=O)[O-])c1
3. Cn1cc(/C=C/[N+](=O)[O-])c2ccc(OCc3ccccc3)cc21
4. CCOC(=O)c1cc2c(nc1N)/C(=C/c1ccccc1)CCCC2
5. CC(C)(C)N/N=C(\C(=O)NC1=C(Cl)C(=O)c2ccccc2C1=O)C1C=CCS1(=O)=O (stereo not drawn)

A.
82
-34
54
80
48

Look at each compound and report its growth inhibition.
1. CC(C)(Sc1cc(Cl)c(Cl)c(Cl)c1)C(=O)OCCN1CCOCC1
2. CS(=O)(=O)OC1COC2C(I)COC12 (stereo not drawn)
3. CC(/C(=N/NC(=O)C(N)=O)c1c(Cl)ccc(Cl)c1O)C1(O)C(=O)Nc2ccccc21 (stereo not drawn)

A.
[96, 30, 18]

List growth inhibition for every entry below, keeping the order given.
1. CCOc1cc(/C=N/NC(=S)NC23CC4CC(CC(C4)C2)C3)ccc1O
2. N=C(N)c1ccc(N=Nc2cc(/C=C/c3ccccc3)ccc2O)cc1

A.
16
98

---

test: NCI Yeast Anticancer Drug Screen. Data for the mec2-1 strain (AID 157); details: S. cerevisiae mec2-1 strain, at 50.0 µM
This is part of a sample that, as a whole, favours compounds with a hit. Of some 79,000 tested, about 15% had one in any assay. Active and inactive are the calls of the source. No stated cut-off is given here; in the data, active means growth inhibition above about 70%; inactive means the rest.
Pick one: 1.0 = active, 0.0 = inactive

Field: example entries. Status: answers known.
{"COMPOUND": "O=C1c2ccccc2C(c2ccccc2)(c2ccccc2)N1c1ccccc1", "LABEL VALUE": 1.0}
{"COMPOUND": "CCCCCCCCCCCC1C(C#N)C(=O)NC(=O)C1C#N (centres undefined)", "LABEL VALUE": 0.0}
{"COMPOUND": "CSc1nc(SC)c2cnn(Cc3ccccc3)c2n1", "LABEL VALUE": 0.0}
{"COMPOUND": "CCOC(=O)C(CCc1ccccc1[N+](=O)[O-])C(C)=O (centres undefined)", "LABEL VALUE": 0.0}
{"COMPOUND": "CCOC(=N)CCCSSc1ccc(N=[N+]=[N-])cc1", "LABEL VALUE": 1.0}

Q. Answer briefly: the call reported for COc1ccc2c(c1)C(=O)C(Br)CC2 (centres undefined) in this assay.
A. 0.0

Q. Query C[C@H](CCC(=O)O)[C@H]1CC[C@H]2[C@@H]3[C@@H](O)C[C@@H]4C[C@H](O)CC[C@]4(C)[C@H]3CC[C@]12C next
A. 1.0

Q. // repeat for Cc1ccc(NS(=O)(=O)c2ccc(C)cc2)cc1 and report
A. 0.0

---

test: NCI Yeast Anticancer Drug Screen. Data for the mlh1 rad18 strain (AID 175); conditions: S. cerevisiae mlh1 rad18 strain growth inhibition; at 5.0 µM (retest, dose inferred, filed as 0.5); stronger effect = higher value
Compounds without any hit were thinned out: in the full panel of roughly 79,000, 15% have a hit.
RECORDED ENDPOINT: growth inhibition (%)
Answers are plain numbers, in %.

I'm hoping you can list growth inhibition for every molecule here, please.
1. Cc1ccc(O)c2c(NCCCCCCNc3cc(C)[n+](C)c4c(C)ccc(O)c34)cc(C)[n+](C)c12
2. CCCCSc1n[nH]c(=O)nc1SC
3. Brc1ccc(C2SCc3nc4ccccc4n32)cc1 (centres undefined)
4. C/C(=N\NC(=S)N(C)C1CCCCC1)c1ccc2ccccc2n1

A.
[-2, -114, -2, 19]
